Tested on: SN12C renal
Protocol text: NCI-60 one-dose screen, 48 h (100 = growth as untreated, 0 = no growth, -100 = all killed)
Setup conditions: 10 µM unless noted
Description: Growth inhibition of the SN12C human tumor cell line is measured as a screen for anti-cancer activity. Cells are grown in 96 well plates and exposed to the test compound for 48 hours. Compounds are tested at a single concentration, which is 10^-5 M for most compounds. The reported endpoint is percent growth (GI% or GIPRCNT), where numbers from 0 - 100% represent growth inhibition, and numbers from -100% - 0 represent cell death. For example, a value of 40 represents 60% growth inhibition. […]
About 83,000 compounds went through this panel and 20% of them were active in at least one assay; those are over-represented in the sample as a whole. The source made the active and inactive calls. The calls were made as follows: active = growth percent below 10; inactive = the rest.
I'd be grateful if you could share measured growth for these entries.

Example molecules with recorded growth:
Molecule	growth
CC1(C)CC[C@]2(C(=O)O)CC[C@]3(C)C(=CCC4[C@@]5(C)C[C@@H](O)[C@@H]6OC(c7ccccc7Br)OC[C@@]6(C)C5CC[C@]43C)C2C1 (some centres undefined)	14.9% (inactive)
C#CCOc1ccc(/C=N/Nc2nc(-c3cc4cc(OC)ccc4oc3=O)cs2)cc1OC	42.3% (inactive)
Cn1cc(-c2cc(N)n3nc(-c4cn(C)c5ccccc45)cc3n2)c2cc(Cl)ccc21	-53.9% (active)
COc1ccc(C(=O)/C=C/c2cccc(Cl)c2Cl)cc1S(N)(=O)=O	-2.06% (active)

# return growth for each item in the list
1. N#Cc1c(-c2cccc3ccccc23)cc(-c2cccc(OCC(=O)O)c2)[nH]c1=O
2. COc1ccc(CCC2c3c(cc4c(c3OC)OCO4)CCN2C)cc1 (centres undefined)
3. COc1ccc(NC(=O)Cn2c(/C=C/c3cccc([N+](=O)[O-])c3)nc3ccccc3c2=O)cc1
4. O=C(/C=C/Nc1ccc(Cl)cc1)c1ccc2c(c1)Nc1ccccc1S2
5. Cn1cc(-c2cc(N)n3nc(-c4cn(C)c5ncccc45)cc3n2)c2cccnc21

Response:
96.8% (inactive)
-18.6% (active)
76.1% (inactive)
61.8% (inactive)
90% (inactive)

====

System: HS 578T breast
Protocol text: NCI-60 one-dose screen, 48 h (100 = growth as untreated, 0 = no growth, -100 = all killed)
Setup conditions: 10 µM unless noted
This is part of a sample that, as a whole, favours compounds with a hit. Of some 83,000 tested, about 20% had one in any assay.
Measured attribute: growth (%)
One number for each entry, in %.

Molecule	Measured attribute	Reported
COc1ccc(C(=O)/C=C/c2cccc(Cl)c2)cc1S(N)(=O)=O	growth	95.4
O=C(NN1C(=O)/C(=C/C=C/c2ccc([N+](=O)[O-])o2)SC1=S)c1ccccc1O	growth	-5.32
C=C1CCC2C3(C)COC(c4cccc(F)c4)OC3CCC2(C)C1C/C=C1/C(=O)OCC1O (stereo not drawn)	growth	15.9
Cc1ccccc1[C@H]1C(C(=O)c2ccc(Cl)cc2)C2(N[C@@H]1c1ccccc1)C(=O)Nc1ccccc12 (stereo partly drawn)	growth	-28.8
COc1cc2c(c(OC)c1OC)C(=O)CC(c1cccc(NC(=O)c3cc(NC(=O)[C@H](CO)NC(=O)OC(C)(C)C)ccc3Cl)c1)O2 (stereo partly drawn)	growth	28.7

# map each molecule to its growth
1. CC(C)c1sc(NC(=O)c2cc(NC(=O)c3cc(NC(=O)c4nccn4C)cn3C)cn2C)nc1C(=O)NCCCN(C)C
2. CCOC(=O)COc1c(OC)c(OC)cc2oc(-c3cccc(C(=O)Nc4ccc(Cl)cc4)c3)cc(=O)c12
3. CC1(C)CC[C@]2(C(=O)Nc3ccccc3)CC[C@]3(C)C(=CCC4[C@@]5(C)C[C@@H](O)[C@H](O)[C@@](C)(CO)C5CC[C@]43C)C2C1 (stereo partly drawn)

Response:
90.3
49.6
62.8

====

System: CCRF-CEM leukemia
Protocol text: NCI-60 one-dose screen, 48 h (100 = growth as untreated, 0 = no growth, -100 = all killed)
Setup conditions: 10 µM unless noted
About 83,000 compounds went through this panel and 20% of them were active in at least one assay; those are over-represented in the sample as a whole.
// not met strictly below 30% in growth; met otherwise

Compound	Target desc	Class label
Cc1ccc([C@H]2C(C(=O)c3ccc(Cl)cc3)C3(N[C@@H]2c2ccccc2)C(=O)Nc2ccc(Br)cc23)cc1 (some centres undefined)	CCRF-CEM leukemia	met
O=c1oc2ccc(Br)cc2cc1C1=CSc2nc3sc4c(c3c(=O)n2N=C1)CCCC4	CCRF-CEM leukemia	met
N#Cc1c(NCc2ccccc2)n[nH]c1Nc1ccccc1	CCRF-CEM leukemia	not met
NS(=O)(=O)c1ccc(-n2cc(-c3cccc(NC(=O)c4ccc(Cl)c(C(F)(F)F)c4)c3)nn2)cc1	CCRF-CEM leukemia	not met
Cc1cc2nc3c4ccccc4n(CCNCCN(C)C)c3nc2cc1C	CCRF-CEM leukemia	not met
O=C1NC(=O)c2c1c1c3cc(Br)ccc3[nH]c1c1oc3ccc(F)cc3c21	CCRF-CEM leukemia	not met
CN(C)c1nc(NCCNS(=O)(=O)c2ccc(C(=O)/C=C/c3ccc(C(F)(F)F)cc3)cc2)nc(Nc2ccc(F)cc2)n1	CCRF-CEM leukemia	not met

As a next step, examine the compound that follows.
Prompt: Decide: is the reported value of growth for `Cc1cc(=O)oc2cc(OCCCCOc3ccc(/C=C/C(=O)Nc4ccccc4N)cc3)ccc12` equal to or greater than 30%?
Response: not met

====

Tested on: NCI-H226 lung
Protocol text: NCI-60 one-dose screen, 48 h
Setup conditions: 10 µM unless noted
Procedure: Growth inhibition of the NCI-H226 human Non-Small Cell Lung tumor cell line is measured as a screen for anti-cancer activity. Cells are grown in 96 well plates and exposed to the test compound for 48 hours. Compounds are tested at a single concentration, which is 10^-5 M for most compounds. The reported endpoint is percent growth (GI% or GIPRCNT), where numbers from 0 - 100% represent growth inhibition, and numbers from -100% - 0 represent cell death. […]
About 83,000 compounds went through this panel and 20% of them were active in at least one assay; those are over-represented in the sample as a whole. Activity calls are given as the source filed them. Rule for the calls: active = growth percent below 10; inactive = the rest.
Lab note: assign the record to one of Y (active), N (inactive)

Here's what some known entries look like.
Compound	Class label
N#Cc1c(NCc2ccccc2)n[nH]c1Nc1ccccc1	N
N#Cc1c(-c2ccc(Br)cc2)nc2n[nH]c(-c3ccc(Br)cc3)c2c1-c1ccc(C(F)(F)F)cc1	N
Cc1cc(=O)oc2cc(OCCCCOc3ccc(/C=C/C(=O)Nc4ccccc4N)cc3)ccc12	N

Prompt: Tell me the assay call for `COc1ccc(-c2nc3cc(C)ccc3n2CC(=O)N=Nc2c(O)[nH]c3ccc(Br)cc23)cc1` please.
Response: Y

Prompt: How did this test come out for `CC(=O)Nc1cccc(-c2nc3cc(-c4ccc(O)cc4)ccc3n2C)c1` ?
Response: N

Prompt: Outcome? CC1(C)CC[C@]2(C(=O)O)CC[C@]3(C)C(=CCC4[C@@]5(C)C[C@@H](O)[C@@H]6OC(c7ccco7)OC[C@@]6(C)C5CC[C@]43C)C2C1 (some centres not stated)
Response: N

Prompt: Please indicate how the test categorized `COc1ccc2oc3c4[nH]c5ccccc5c4c4c(c3c2c1)C(=O)N(C(=O)OC(C)(C)C)C4=O` .
Response: Y

Prompt: Fill in: this test's call for `COc1ccc(C(=O)/C=C/c2cc3c(cc2Br)OCO3)cc1S(N)(=O)=O` is ___
Response: N

Prompt: Please share the test call associated with `O=c1onc(-c2cc3ccccc3nc2Cl)n1-c1cccc2ccccc12` .
Response: N

Prompt: For CCN1C(=O)N(CC)C2NNC(Sc3c(C(=O)O)c4ccccc4n(C4CCCC4)c3=O)=NC21 (configuration not stated) , what call appears in the results of this test?
Response: N

====

System: ACHN renal
Protocol text: NCI-60 one-dose screen, 48 h (100 = growth as untreated, 0 = no growth, -100 = all killed)
Setup conditions: 10 µM unless noted
Compounds without any hit were thinned out: in the full panel of roughly 83,000, 20% have a hit.
# label = Condition met if growth >= 30% else Condition not met

Completed entries (count: 2):
Compound	Class label
COc1ccc(NC(=O)[C@@H](N)Cc2ccccc2)cc1C(=O)Nc1cccc(C2CC(=O)c3c(cc(OC)c(OC)c3OC)O2)c1 (stereo not given in full)	Condition met
Cc1cccc(NC(=O)[C@]23CCC(C)(C)CC2C2=CCC4[C@@]5(C)C[C@@H](O)[C@H](O)[C@@](C)(CO)C5CC[C@@]4(C)[C@]2(C)CC3)c1 (stereo not given in full)	Condition not met

Consider the record given below.
Prompt: Hi team, for `COc1cccc(/C=C/c2nc3ccccc3c(=O)n2CC(=O)Nc2ccc(Cl)cc2)c1` , is the recorded growth at or above 30%?
Response: Condition not met

====

Would you mind telling me the reported growth of each entry?
System: SF-539 CNS
Protocol text: NCI-60 one-dose screen, 48 h (100 = growth as untreated, 0 = no growth, -100 = all killed)
Setup conditions: 10 µM unless noted
This is part of a sample that, as a whole, favours compounds with a hit. Of some 83,000 tested, about 20% had one in any assay. Active and inactive are the calls of the source. How the source made its calls: active means growth percent below 10; inactive means the rest.

Example entries and their recorded answers appear below.
Molecule	Target desc	Reported
COc1ccc(C(SCCNCc2cc(N(C)C)ccn2)(c2ccccc2)c2ccccc2)cc1	SF-539 CNS	-93% (active)
Cn1cc(-c2cc3nc(-c4cn(C)c5ncc(Br)cc45)cc(N)n3n2)c2ccccc21	SF-539 CNS	-90.2% (active)
COc1cc(-c2ccc(/C=N/NC(=O)c3[nH]c4ccc(Br)cc4c3-c3ccccc3)o2)cc(OC)c1OC	SF-539 CNS	-13.1% (active)

Okay, here is my list. What is growth for each of these?
1. Cc1cc(N=C2NC(=O)CS2)n[nH]1
2. Cc1occc1C(=O)NN1C(=O)/C(=C/C=C/c2ccc([N+](=O)[O-])o2)SC1=S
3. Cn1cc(-c2cc3nc(-c4c[nH]c5ccc(Br)cc45)cc(N)n3n2)c2ccccc21
4. Cc1cccc(-c2nc(Nc3cccc(S(N)(=O)=O)c3)c3ccccc3n2)c1
5. CC1(C)CC[C@]2(C(=O)O)CC[C@]3(C)C(=CCC4[C@@]5(C)C[C@@H](O)[C@@H]6OC(c7ccco7)OC[C@@]6(C)C5CC[C@]43C)C2C1 (stereo partly drawn)

Response:
1: 97.6% (inactive); 2: -99.4% (active); 3: -89.7% (active); 4: -9.93% (active); 5: 21.9% (inactive)

Below is a list of molecules. For each, state its recorded growth.
1. CCN(CC)c1ccc(/C=N/Nc2nc(-c3ccc(Br)cc3)cs2)c(O)c1
2. Clc1cccc(Cl)c1/C=C/c1cc(/C=C/c2ccc(Br)cc2)c2ccccc2n1
3. Cc1cc2c(cc1Cl)C(=O)/C(=C/c1ccc(F)cc1)O2
4. COc1ccc2cc([C@H](C)C(=O)N/N=C/c3ccc(Br)cc3)ccc2c1
5. CN1CCN(c2ccc(C(=O)/C=C/c3ccc(Br)cc3)cc2)CC1
6. O=C(c1ccc(OCCN2CCOCC2)cc1)C1[C@H](c2ccc(Cl)cc2)[C@@H](c2ccccc2)NC12C(=O)Nc1ccc(Br)cc12 (stereo partly drawn)
7. CC(=O)OC[C@@]1(C)C2CC[C@]3(C)C(CC=C4C5CC(C)(C)CC[C@]5(C(=O)Nc5ccc(Br)cc5)CC[C@]43C)[C@@]2(C)C[C@@H](OC(C)=O)[C@@H]1OC(C)=O (stereo partly drawn)

Response:
["52.3% (inactive)", "95.7% (inactive)", "85.9% (inactive)", "102% (inactive)", "-34.9% (active)", "35% (inactive)", "38.7% (inactive)"]
